- Method Notes: Acute toxicity, single administration, intraperitoneal route
- Format: in vivo
- Condition Notes: mouse, in vivo, ip, Souris Femelles, method Miller et Tainter (M.T.), confidence interval P = 0,05; read-out: DL50
Measurement Label: LD50 at 360 h
Answer format: value, then unit.

[in] Using the record for COc1ccc(C(=O)CC2(O)C(=O)c3ccccc3C2=O)cc1OC , report its LD50 at 360 h.
[out] 3000 mg/kg

* * *

- Method Notes: Acute toxicity, single administration, intraperitoneal route
- Assay type: in vivo
- Condition Notes: mouse, in vivo, ip, voie intrapéritonéale, mâles, "de l'ordre de"; read-out: DL50
Measurement Label: LD50 at 360 h

[in] Suppose we examine the molecule CCOC(=O)C(C)(C)Oc1ccc(Cl)cc1 [Clofibrate] ; what LD50 at 360 h value has been reported?
[out] ~1850 mg/kg

* * *

- Method Notes: Acute toxicity, single administration, intraperitoneal route
- Format: in vivo
- Condition Notes: mouse, in vivo, ip, 2000 mg/kg, 2000 mg/kg IP, single dose; read-out: Létalite sur 10 souris Mâles
Measurement Label: mortality at 360 h (%)
Report the value in % with no unit label.

[in] mortality at 360 h for COc1ccc(C(=O)CC2(O)C(=O)c3ccccc3C2=O)cc1OC ?
[out] 0

* * *

- Method Notes: Acute toxicity, single administration, intraperitoneal route
- Assay type: in vivo
- Condition Notes: mouse, in vivo, ip, 3500 mg/kg, 3500 mg/kg IP, single dose; read-out: Létalite sur 10 souris Mâles
- From the text: Souris SWISS mâles et femelles de 22 à 25g de poids corporel. Animaux EOPS. Sauf mention contraire précisée dans les tableaux de résultats, 10 animaux par dose, sexe et cage en MAKROLON SAFI@ de 40/25 cm. Litière de copeaux de bois blanc. Alimentation standard pour rats et souris UAR et eau ordinaire à volonté. […]
Measurement Label: mortality at 360 h
A complete answer gives the number followed by the unit.

[in] Give its mortality at 360 h value. Item: COc1ccc(C(=O)CC2(O)C(=O)c3ccccc3C2=O)cc1OC
[out] 50%

* * *

- Method Notes: Acute toxicity, single administration, intraperitoneal route
- Assay type: in vivo
- Condition Notes: mouse, in vivo, ip, 4000 mg/kg, 4000 mg/kg IP, single dose; read-out: Létalite sur 10 souris Mâles
Measurement Label: mortality at 360 h (%)
The reply should contain only the number, in %.

[in] mortality at 360 h for COc1ccc(C(=O)CC2(O)C(=O)c3ccccc3C2=O)cc1OC ?
[out] 80

* * *

- Method Notes: Acute toxicity, single administration, intraperitoneal route
- Type: in vivo
- Condition Notes: mouse, in vivo, ip, 3000 mg/kg, 3000 mg/kg IP, single dose; read-out: Létalite sur 10 souris Mâles
Measurement Label: mortality at 360 h

[in] What value of mortality at 360 h has been reported for the following molecule? COc1ccc(C(=O)CC2(O)C(=O)c3ccccc3C2=O)cc1OC
[out] 30%

* * *

- Method Notes: Acute toxicity, single administration, intraperitoneal route
- Type: in vivo
- Condition Notes: mouse, in vivo, ip, Souris Femelles, method Behrens et Karber (B.K.); read-out: DL50
Measurement Label: LD50 at 360 h (mg/kg)
Reply with just the number (in mg/kg).

[in] Which value of LD50 at 360 h has been reported for COc1ccc(C(=O)CC2(O)C(=O)c3ccccc3C2=O)cc1OC in the records?
[out] 3000

* * *

- Method Notes: Acute toxicity, single administration, intraperitoneal route
- Type: in vivo
- Condition Notes: mouse, in vivo, ip, 2500 mg/kg, 2500 mg/kg IP, single dose; read-out: Létalite sur 10 souris Femelles
Measurement Label: mortality at 360 h (%)
// note: answer is a bare numeric in %

[in] Can you share its mortality at 360 h? I mean this compound: COc1ccc(C(=O)CC2(O)C(=O)c3ccccc3C2=O)cc1OC
[out] 10

* * *

- Method Notes: Acute toxicity, single administration, intraperitoneal route
- Type: in vivo
- Condition Notes: mouse, in vivo, ip, 2000 mg/kg, 2000 mg/kg IP, single dose; read-out: Létalite sur 10 souris Femelles
Measurement Label: mortality at 360 h (%)
Numbers only here, please. The scale is %.

[in] Reported mortality at 360 h for COc1ccc(C(=O)CC2(O)C(=O)c3ccccc3C2=O)cc1OC [Produit de l'invention] : what is it?
[out] 0

* * *

- Method Notes: Acute toxicity, single administration, intraperitoneal route
- Format: in vivo
- Condition Notes: mouse, in vivo, ip, 4500 mg/kg, 4500 mg/kg IP, single dose; read-out: Létalite sur 10 souris Mâles
- Text: Souris SWISS mâles et femelles de 22 à 25g de poids corporel. Animaux EOPS. Sauf mention contraire précisée dans les tableaux de résultats, 10 animaux par dose, sexe et cage en MAKROLON SAFI@ de 40/25 cm. Litière de copeaux de bois blanc. Alimentation standard pour rats et souris UAR et eau ordinaire à volonté. […]
Measurement Label: mortality at 360 h (%)
Quick reminder: number only, in %, skip the unit.

[in] Given COc1ccc(C(=O)CC2(O)C(=O)c3ccccc3C2=O)cc1OC [Produit de l'invention] , state its recorded mortality at 360 h.
[out] 100

* * *

- Method Notes: Acute toxicity, single administration, intraperitoneal route
- Type: in vivo
- Condition Notes: mouse, in vivo, ip, 4500 mg/kg, 4500 mg/kg IP, single dose; read-out: Létalite sur 10 souris Femelles
Measurement Label: mortality at 360 h (%)
The figure you give is taken to be in %; do not add the unit.

[in] What value of mortality at 360 h has been recorded for this entry: COc1ccc(C(=O)CC2(O)C(=O)c3ccccc3C2=O)cc1OC [Produit de l'invention]
[out] 100

* * *

- Method Notes: Acute toxicity, single administration, intraperitoneal route
- Assay type: in vivo
- Condition Notes: mouse, in vivo, ip, 5000 mg/kg, 5000 mg/kg IP, single dose; read-out: Létalite sur 10 souris Femelles
Measurement Label: mortality at 360 h (%)
Numbers only; they are read as %.

[in] For COc1ccc(C(=O)CC2(O)C(=O)c3ccccc3C2=O)cc1OC , what is its reported mortality at 360 h?
[out] 100

* * *

- Method Notes: Acute toxicity, single administration, intraperitoneal route
- Assay type: in vivo
- Condition Notes: mouse, in vivo, ip, voie intrapéritonéale, sex not specified, "de l'ordre de"; read-out: DL50
Measurement Label: LD50 at 360 h

[in] I would be grateful if you could share the reported LD50 at 360 h for COc1ccc(C(=O)CC2(O)C(=O)c3ccccc3C2=O)cc1OC [Produit de l'invention] .
[out] ~3000 mg/kg

* * *

- Method Notes: Acute toxicity, single administration, intraperitoneal route
- Format: in vivo
- Condition Notes: mouse, in vivo, ip, 4000 mg/kg, 4000 mg/kg IP, single dose; read-out: Létalite sur 10 souris Femelles
- Source text: Souris SWISS mâles et femelles de 22 à 25g de poids corporel. Animaux EOPS. Sauf mention contraire précisée dans les tableaux de résultats, 10 animaux par dose, sexe et cage en MAKROLON SAFI@ de 40/25 cm. Litière de copeaux de bois blanc. Alimentation standard pour rats et souris UAR et eau ordinaire à volonté. […]
Measurement Label: mortality at 360 h (%)
Report the value in % with no unit label.

[in] Give the measured mortality at 360 h of COc1ccc(C(=O)CC2(O)C(=O)c3ccccc3C2=O)cc1OC [Produit de l'invention] .
[out] 100

* * *

- Method Notes: Acute toxicity, single administration, intraperitoneal route
- Type: in vivo
- Condition Notes: mouse, in vivo, ip, 3000 mg/kg, 3000 mg/kg IP, single dose; read-out: Létalite sur 10 souris Femelles
Measurement Label: mortality at 360 h (%)
Quick reminder: number only, in %, skip the unit.

[in] For COc1ccc(C(=O)CC2(O)C(=O)c3ccccc3C2=O)cc1OC , what is its reported mortality at 360 h?
[out] 60

* * *

- Method Notes: Acute toxicity, single administration, intraperitoneal route
- Assay type: in vivo
- Condition Notes: mouse, in vivo, ip, Souris Mâles, method Miller et Tainter (M.T.), confidence interval P = 0,05; read-out: DL50
Measurement Label: LD50 at 360 h (mg/kg)
API: value field is a number in mg/kg; no unit string.

[in] Reported LD50 at 360 h for COc1ccc(C(=O)CC2(O)C(=O)c3ccccc3C2=O)cc1OC : what is it?
[out] 3350

* * *

- Method Notes: Acute toxicity, single administration, intraperitoneal route
- Format: in vivo
- Condition Notes: mouse, in vivo, ip, 5000 mg/kg, 5000 mg/kg IP, single dose; read-out: Létalite sur 10 souris Mâles
- From the text: Souris SWISS mâles et femelles de 22 à 25g de poids corporel. Animaux EOPS. Sauf mention contraire précisée dans les tableaux de résultats, 10 animaux par dose, sexe et cage en MAKROLON SAFI@ de 40/25 cm. Litière de copeaux de bois blanc. Alimentation standard pour rats et souris UAR et eau ordinaire à volonté. […]
Measurement Label: mortality at 360 h (%)
// return numeric value only (unit: %, not printed)

[in] Report mortality at 360 h for COc1ccc(C(=O)CC2(O)C(=O)c3ccccc3C2=O)cc1OC [Produit de l'invention] please.
[out] 100

Origin of measurements: patent EP0167553B1
